experiment_notes: Half life in rat brain homogenate by RP-HPLC
Type: ADME, tissue-based

compound | half-life
C[C@@H](c1ccccc1)[C@H](NC(=O)[C@H](Cc1c[nH]c2ccccc12)NC(=O)[C@H]1CCCC[C@H]1NC(=O)[C@@H](N)Cc1ccc(O)cc1)C(N)=O | > 20 h
NC(=O)C(Cc1ccc(F)cc1)NC(=O)[C@H](Cc1c[nH]c2ccccc12)NC(=O)[C@H]1CCCC[C@H]1NC(=O)[C@@H](N)Cc1ccc(O)cc1 (stereo partly specified) | > 20 h
Cc1cc(CC(N)C(=O)N[C@@H]2CCCC[C@@H]2C(=O)N[C@@H](Cc2ccccc2)C(=O)NC(Cc2ccc(F)cc2)C(N)=O)cc(C)c1O (stereo partly specified) | > 20 h
NC(=O)[C@H](Cc1ccccc1)NC(=O)[C@H](Cc1c[nH]c2ccccc12)NC(=O)[C@@H]1CCCN1C(=O)[C@@H](N)Cc1ccc(O)cc1 [ENDOMORPHIN-1] | 0.105 h
NC(=O)[C@H](Cc1ccccc1)NC(=O)[C@H](Cc1ccccc1)NC(=O)[C@@H]1CCCN1C(=O)[C@@H](N)Cc1ccc(O)cc1 [ENDOMORPHIN 2] | 0.095 h
Cc1cc(CC(N)C(=O)N[C@@H]2CCCC[C@@H]2C(=O)N[C@@H](Cc2ccccc2)C(=O)N[C@H](C(N)=O)[C@@H](C)c2ccccc2)cc(C)c1O (stereo partly specified) | > 20 h
